# Test system: ex vivo calcium ionophore-stimulated LTB4 production in whole blood
# ASSAY PROCEDURE: Murine arachidonic acid-induced inflammation model: ex vivo stimulated LTB4 production in blood
# Parameters: species or system Balb/c mice
# EXPERIMENTAL CONTEXT: Mus musculus; 30 mg/kg oral gavage; blood diluted 1:1, A23187 stimulated ex vivo; percent inhibition of LTB4 production; read-out: % Inh. LTB4
# Method: Assay 3: Murine Arachidonic Acid-Induced Inflammation Model LTA4H inhibitor compounds of the present invention were dissolved in 20% cyclodextran/H2O at a concentration of 3 mg/mL. […] The microtiter plate contents were incubated for 30 min at 37° C. in a humidified incubator. […] Supernatants were analyzed for LTB4 by a commercially available enzyme-linked immunoassay (Cayman Chemical Co.) in accordance with the manufacturer's instructions. […]
Structures can show the parent of a compound that is named as a salt.
Reported inhibition at 30 mg/kg values are given for each entry in this list.
EXPERIMENTAL READOUT: inhibition at 30 mg/kg (%)

> print(dat)
                                   molecule  assay.value
1  CCN(CC)Cc1cc2ccc(Oc3nc4ncccc4s3)cc2o1 [Example 198, formate]           80
2  NC(=O)N1C[C@@H]2C[C@H]1CN2Cc1coc2cc(Oc3nc4ncccc4s3)ccc12 [Example 209, formate]           68
3  CC(=O)NC1CCN(Cc2coc3cc(Oc4nc5ncccc5s4)ccc23)C1 (centres unmarked) [Example 307, formate]           81
4  CC(=O)N1C[C@@H]2C[C@H]1CN2CCc1coc2cc(Oc3nc4ncccc4s3)ccc12 [Example 258]         70.9
5  COCCN(C)Cc1coc2cc(Oc3nc4ncccc4s3)ccc12 [Example 184]           82

----------
Reported IC50 values are given for each entry in this list.
# Test system: LTB4 production in murine blood (LTA4H)
# ASSAY PROCEDURE: LTB4 production by calcium ionophore-stimulated murine blood for LTA4H inhibitor activity
# Type: cell-based, CD-1 mice
# EXPERIMENTAL CONTEXT: Mus musculus; murine blood diluted 1 in 15, A23187 stimulated; single determination or average; mark after value = form tested: ′ free base, ″ hydrochloride, ^ formate; read-out: IC50
EXPERIMENTAL READOUT: IC50 (nM)

> print(dat)
                         chemical.structure  experimental.readout  assay.value
1  O=C(c1coc2cc(Oc3nc4ncccc4s3)ccc12)N1CCN(C2CCCCC2)CC1                  IC50          150
2  OC1(c2ccc(Cl)cc2)CCN(Cc2coc3cc(Oc4nc5ncccc5s4)ccc23)CC1                  IC50          130
3  CC(=O)N[C@H]1C[C@H]2CC[C@@H](C1)N2Cc1cc2ccc(Oc3nc4ncccc4s3)cc2o1                  IC50           50

----------
# TARGET OR TEST SYSTEM: recombinant human LTA4 hydrolase (rhLTA4H) (Homo sapiens, UniProt P09960)
# Construct: made in house; host or cells: Spodoptera frugiperda (Sf-9) cells, baculovirus (pFastBac1)
# Sequence (P09960 whole entry): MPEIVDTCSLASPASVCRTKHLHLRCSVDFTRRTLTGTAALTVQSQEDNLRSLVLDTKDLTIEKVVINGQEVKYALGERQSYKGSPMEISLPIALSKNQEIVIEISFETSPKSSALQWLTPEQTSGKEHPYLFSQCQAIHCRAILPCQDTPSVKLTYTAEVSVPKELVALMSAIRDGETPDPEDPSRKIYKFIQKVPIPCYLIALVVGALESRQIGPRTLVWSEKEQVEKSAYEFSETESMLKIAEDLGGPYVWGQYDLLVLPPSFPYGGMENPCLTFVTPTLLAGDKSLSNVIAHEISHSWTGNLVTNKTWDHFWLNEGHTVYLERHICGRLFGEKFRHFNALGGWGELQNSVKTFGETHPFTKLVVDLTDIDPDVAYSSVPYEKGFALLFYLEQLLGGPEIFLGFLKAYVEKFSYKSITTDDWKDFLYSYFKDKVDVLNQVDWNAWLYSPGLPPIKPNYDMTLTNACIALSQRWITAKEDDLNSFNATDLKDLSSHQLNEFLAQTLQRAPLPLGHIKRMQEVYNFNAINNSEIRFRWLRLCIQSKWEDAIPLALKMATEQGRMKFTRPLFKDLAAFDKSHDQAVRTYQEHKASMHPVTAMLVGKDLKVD
# ASSAY PROCEDURE: Recombinant human LTA4 hydrolase assay for LTA4 hydrolase inhibitor activity
# Type: biochemical
# EXPERIMENTAL CONTEXT: rhLTA4H, LTB4 by immunoassay; single determination or average of two or more; mark after value = form tested: ′ free base, ″ hydrochloride, ^ formate; read-out: IC50
pIC50: −log10 of the molar value. Counter-ions that a name gives are not always drawn.
EXPERIMENTAL READOUT: pIC50

> print(dat)
                                   molecule  assay.value
1  c1cnc2nc(Oc3ccc4c(CN5CCC(N6CCOCC6)CC5)coc4c3)sc2c1 [Example 285, formate]         7.80
2  c1csc(CN2CCN(Cc3coc4cc(Oc5nc6ncccc6s5)ccc34)CC2)c1 [Example 325]         7.59
3  c1ccc2c(c1)CCN(Cc1coc3cc(Oc4nc5ncccc5s4)ccc13)C2 [Example 293, formate]         7.72
4  O=C(C1CCN(Cc2cc3ccc(Oc4nc5ncccc5s4)cc3o2)CC1)N1CCCC1 [Example 205]         6.92
5  OC[C@@H]1CCCN1Cc1coc2cc(Oc3nc4ccccc4s3)ccc12 [Example 312]         7.66
